Where do the numbers come from? From paper PMC6297231.

system: H2122; assay: cells; settings: Homo sapiens, NCI-H2122, 6 h, read-out: AZD5991 6h EC50
Parameter Measured: EC50 (µM)
# value in µM; strip the unit string

# lookup: EC50 of Cc1c2c(nn1C)CSCc1cc(n(C)n1)CSc1cc(c3ccccc3c1)OCCCc1c(C(=O)O)n(C)c3c-2c(Cl)ccc13 (atropisomer, axis not shown; (Ra)) [(Ra)-7] 15.2

---

system: Kasumi3; test: cells; settings: Kasumi-3, 6 h, read-out: AZD5991 6h EC50
Parameter Measured: pEC50
Hey, just a heads up that pEC50 is the negative log base 10 of the concentration in molar.

GET /values?readout=pEC50&item= Cc1c2c(nn1C)CSCc1cc(n(C)n1)CSc1cc(c3ccccc3c1)OCCCc1c(C(=O)O)n(C)c3c-2c(Cl)ccc13 (atropisomer, axis not shown; (Ra)) [(Ra)-7] 6.05
